Tested on: 379773-124-R-J2-PDC complex spheroids, viability % test/control
ASSAY_COMMENT: Anticancer human tumor 379773-124-R-J2-PDC patient-derived endometrial carcinoma cell line growth inhibition [CLK]; active means viability on the fitted dose curve at most 10% of control; inactive means the rest
TEST_CONDITIONS: second compound 0.316 µM; first compound 0.0949 µM
Description: A high-throughput screen of multi-cell type tumor spheroids was designed to identify active combinations of […] and targeted small molecules. Complex spheroids include a stromal component modeled by human endothelial cells (HUVEC) and fibroblasts modeled by human mesenchymal stem cells (MSCs). […] Compounds. […] If the clinical Cmax for an agent had not been determined, the highest concentration tested was 10 microM. […]
Please state which outcome applies, choosing from active, inactive

As a guide, the following entries are already answered.
COMPOUND	CAT
CC(C)CC(NC(=O)C(Cc1ccccc1)NC(=O)c1cnccn1)B(O)O (stereo unspecified) + CN1CCN(c2cc(C(=O)Nc3cc4cc(-c5cnn(C)c5)ccc4cn3)ccn2)CC1	active
C=CC(=O)Nc1cc(Nc2nccc(-c3cn(C)c4ccccc34)n2)c(OC)cc1N(C)CCN(C)C + CNC(=O)c1ccc(Nc2nc(OC3CCCC3)c3c(-c4ccc5nc(C)oc5c4)c[nH]c3n2)c(OC)c1	inactive
NC(=O)C(=Cn1cnc(-c2cc(C(F)(F)F)cc(C(F)(F)F)c2)n1)c1cncnc1 + CNC(=O)c1ccc(Nc2nc(OC3CCCC3)c3c(-c4ccc5nc(C)oc5c4)c[nH]c3n2)c(OC)c1	inactive
C=CC(=O)Nc1cc(Nc2nccc(-c3cn(C)c4ccccc34)n2)c(OC)cc1N(C)CCN(C)C + CN1CCN(c2cc(C(=O)Nc3cc4cc(-c5cnn(C)c5)ccc4cn3)ccn2)CC1	inactive
CC(C)CC(NC(=O)C(Cc1ccccc1)NC(=O)c1cnccn1)B(O)O (stereo unspecified) + CNC(=O)c1ccc(Nc2nc(OC3CCCC3)c3c(-c4ccc5nc(C)oc5c4)c[nH]c3n2)c(OC)c1	active

Could you now look at the following compound, please?
Record lookup: outcome of this test for NC(=O)C(=Cn1cnc(-c2cc(C(F)(F)F)cc(C(F)(F)F)c2)n1)c1cncnc1 + CN1CCN(c2cc(C(=O)Nc3cc4cc(-c5cnn(C)c5)ccc4cn3)ccn2)CC1 ? active

----------
Test system: 379773-124-R-J2-PDC complex spheroids, viability % test/control
ASSAY_COMMENT: Anticancer human tumor 379773-124-R-J2-PDC cell line growth inhibition [CLK];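 further: compound exposure lasted seven days before the viability readout; 100% = DMSO vehicle control wells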
TEST_CONDITIONS: second compound 10 µM; first compound 0.3 µM; hits give low values
Listed next: entries and their corresponding viability, T/C.

The examples below pair each entry with its known result.
COMPOUND	TARGET	RESULT
CC(C)CC(NC(=O)C(Cc1ccccc1)NC(=O)c1cnccn1)B(O)O (stereo unspecified) + CNC(=O)c1ccc(Nc2nc(OC3CCCC3)c3c(-c4ccc5nc(C)oc5c4)c[nH]c3n2)c(OC)c1	379773-124-R-J2-PDC complex spheroids, viability % test/control	0.12%
C=CC(=O)Nc1cc(Nc2nccc(-c3cn(C)c4ccccc34)n2)c(OC)cc1N(C)CCN(C)C + CN1CCN(c2cc(C(=O)Nc3cc4cc(-c5cnn(C)c5)ccc4cn3)ccn2)CC1	379773-124-R-J2-PDC complex spheroids, viability % test/control	0.26%
C=CC(=O)Nc1cc(Nc2nccc(-c3cn(C)c4ccccc34)n2)c(OC)cc1N(C)CCN(C)C + CNC(=O)c1ccc(Nc2nc(OC3CCCC3)c3c(-c4ccc5nc(C)oc5c4)c[nH]c3n2)c(OC)c1	379773-124-R-J2-PDC complex spheroids, viability % test/control	25.9%

Look up viability, T/C of NC(=O)C(=Cn1cnc(-c2cc(C(F)(F)F)cc(C(F)(F)F)c2)n1)c1cncnc1 + CN1CCN(c2cc(C(=O)Nc3cc4cc(-c5cnn(C)c5)ccc4cn3)ccn2)CC1 and report it. 0.18%

Query viability, T/C for NC(=O)C(=Cn1cnc(-c2cc(C(F)(F)F)cc(C(F)(F)F)c2)n1)c1cncnc1 + CNC(=O)c1ccc(Nc2nc(OC3CCCC3)c3c(-c4ccc5nc(C)oc5c4)c[nH]c3n2)c(OC)c1 7.07%

Answer with reported viability, T/C of CC(C)CC(NC(=O)C(Cc1ccccc1)NC(=O)c1cnccn1)B(O)O (stereo unspecified) + CN1CCN(c2cc(C(=O)Nc3cc4cc(-c5cnn(C)c5)ccc4cn3)ccn2)CC1 0.24%

----------
Test system: 379773-124-R-J2-PDC complex spheroids, viability % test/control
ASSAY_COMMENT: Anticancer human tumor 379773-124-R-J2-PDC cell line growth inhibition [CLK];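 further: compound exposure lasted seven days before the viability readout; 100% = DMSO vehicle control wells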
TEST_CONDITIONS: second compound 0.316 µM; first compound 3.16 µM; hits give low values
For each record, check the reported viability, T/C: if it is below 30% write satisfied, else write not satisfied.

COMPOUND	CAT
CC(=O)O[C@H]1C(=O)[C@@]2(C)[C@H]([C@H](OC(=O)c3ccccc3)[C@]3(O)C[C@H](OC(=O)[C@H](O)[C@@H](NC(=O)c4ccccc4)c4ccccc4)C(C)=C1C3(C)C)[C@]1(OC(C)=O)CO[C@@H]1C[C@@H]2O + CNC(=O)c1ccc(Nc2nc(OC3CCCC3)c3c(-c4ccc5nc(C)oc5c4)c[nH]c3n2)c(OC)c1	not satisfied

Dear reviewer, please state whether CC1(C)CCC(CN2CCN(c3ccc(C(=O)NS(=O)(=O)c4ccc(NCC5CCOCC5)c([N+](=O)[O-])c4)c(Oc4cnc5[nH]ccc5c4)c3)CC2)=C(c2ccc(Cl)cc2)C1 + CN1CCN(c2cc(C(=O)Nc3cc4cc(-c5cnn(C)c5)ccc4cn3)ccn2)CC1 has viability, T/C strictly beneath 30%. satisfied

Find out if reported viability, T/C for CC(Nc1ccc2c(c1)OCCn1cc(N3C(=O)OCC3C(F)F)nc1-2)C(N)=O (stereo not given) + CN1CCN(c2cc(C(=O)Nc3cc4cc(-c5cnn(C)c5)ccc4cn3)ccn2)CC1 is less than 30% satisfied

Threshold test, viability, T/C < 30%: CC(CO)NC(=O)c1cc(-c2ccc(Cl)cc2)nn(-c2cnn(C)c2)c1=O (stereo not given) + CNC(=O)c1ccc(Nc2nc(OC3CCCC3)c3c(-c4ccc5nc(C)oc5c4)c[nH]c3n2)c(OC)c1 not satisfied

----------
Test system: 379773-124-R-J2-PDC complex spheroids, viability % test/control
ASSAY_COMMENT: Anticancer human tumor 379773-124-R-J2-PDC cell line growth inhibition [CLK];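 further: compound exposure lasted seven days before the viability readout; 100% = DMSO vehicle control wells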
TEST_CONDITIONS: second compound 0.316 µM; first compound 0.1 µM; hits give low values
From the text: A high-throughput screen of multi-cell type tumor spheroids was designed to identify active combinations of […] and targeted small molecules. Complex spheroids include a stromal component modeled by human endothelial cells (HUVEC) and fibroblasts modeled by human mesenchymal stem cells (MSCs). […] Compounds. […] If the clinical Cmax for an agent had not been determined, the highest concentration tested was 10 microM. […]
viability, T/C: recorded values

MOLECULE	TARGET	viability, T/C
COc1cccc2c1C(=O)c1c(O)c3c(c(O)c1C2=O)CC(O)(C(=O)CO)CC3OC1CC(N)C(O)C(C)O1 (stereo not given) + CNC(=O)c1ccc(Nc2nc(OC3CCCC3)c3c(-c4ccc5nc(C)oc5c4)c[nH]c3n2)c(OC)c1	379773-124-R-J2-PDC complex spheroids, viability % test/control	4.93%
CCCS(=O)(=O)Nc1ccc(F)c(C(=O)c2c[nH]c3ncc(-c4ccc(Cl)cc4)cc23)c1F + CNC(=O)c1ccc(Nc2nc(OC3CCCC3)c3c(-c4ccc5nc(C)oc5c4)c[nH]c3n2)c(OC)c1	379773-124-R-J2-PDC complex spheroids, viability % test/control	30.1%
Nc1ccn(C2OC(CO)C(O)C2(F)F)c(=O)n1 (stereo not given) + CNC(=O)c1ccc(Nc2nc(OC3CCCC3)c3c(-c4ccc5nc(C)oc5c4)c[nH]c3n2)c(OC)c1	379773-124-R-J2-PDC complex spheroids, viability % test/control	5.27%

For 379773-124-R-J2-PDC complex spheroids, viability % test/control, give the measured viability, T/C of the entry COc1c(OCCCN2CCOCC2)ccc2c3n(c(=NC(=O)c4cnc(N)nc4)nc12)CCN3 + CN1CCN(c2cc(C(=O)Nc3cc4cc(-c5cnn(C)c5)ccc4cn3)ccn2)CC1 6.99%

Give measured viability, T/C for Nc1ccn(C2OC(CO)C(O)C2(F)F)c(=O)n1 (stereo not given) + CN1CCN(c2cc(C(=O)Nc3cc4cc(-c5cnn(C)c5)ccc4cn3)ccn2)CC1 (379773-124-R-J2-PDC complex spheroids, viability % test/control). 4.03%

Retrieve viability, T/C on 379773-124-R-J2-PDC complex spheroids, viability % test/control; query Nc1ccccc1NC(=O)c1ccc(CNC(=O)OCc2cccnc2)cc1 + CN1CCN(c2cc(C(=O)Nc3cc4cc(-c5cnn(C)c5)ccc4cn3)ccn2)CC1 27.6%

Tell me its viability, T/C on 379773-124-R-J2-PDC complex spheroids, viability % test/control: C=CC(=O)N1CCN(c2nc(=O)n(-c3c(C)ccnc3C(C)C)c3nc(-c4c(O)cccc4F)c(F)cc23)C(C)C1 (stereo not given) + CN1CCN(c2cc(C(=O)Nc3cc4cc(-c5cnn(C)c5)ccc4cn3)ccn2)CC1 32.8%

Give 379773-124-R-J2-PDC complex spheroids, viability % test/control viability, T/C for the following molecule: O=C(c1cc(Cc2n[nH]c(=O)c3ccccc23)ccc1F)N1CCN(C(=O)C2CC2)CC1 + CN1CCN(c2cc(C(=O)Nc3cc4cc(-c5cnn(C)c5)ccc4cn3)ccn2)CC1 22.3%

Report viability, T/C from 379773-124-R-J2-PDC complex spheroids, viability % test/control testing of CC(Nc1ccc2c(c1)OCCn1cc(N3C(=O)OCC3C(F)F)nc1-2)C(N)=O (stereo not given) + CNC(=O)c1ccc(Nc2nc(OC3CCCC3)c3c(-c4ccc5nc(C)oc5c4)c[nH]c3n2)c(OC)c1 30.3%
